Examples of compounds with documented inhibition in vivo at 100 mg/kg follow.
tested on: adjuvant-induced polyarthritis (hind paw volume); experiment: Modified developing adjuvant arthritis in rats (adjuvant-induced polyarthritis, AIP); type: in vivo, male Lewis rats; details: Rattus norvegicus, po, 480 h; 100 mg/kg once daily p.o. d. 1-8; read d. 20-22; read-out: AIP Inhib. score (% Inhibition of paw edema) d. 20-22

(Q) For the compound N#CC(C(=O)NC1CCC1)C(=O)C1CC1 (stereo not shown) , report inhibition in vivo at 100 mg/kg.
(A) 25 to 40%

(Q) Return inhibition in vivo at 100 mg/kg (reported value) for this compound: CNC(=O)C(C#N)C(=O)C1CCC1 (stereo not shown)
(A) < 25%

(Q) Output inhibition in vivo at 100 mg/kg of CNC(=O)C(C#N)C(=O)C1CC1 (stereo not shown)
(A) 80 to 100%

(Q) Please report inhibition in vivo at 100 mg/kg for the following compound: CN(C)C(=O)C(C#N)C(=O)C1CC1 (stereo not shown)
(A) 60 to 80%

Values from patent US4888357A
